- System name: ZFPf (synthetic)
- Sequence (chain, as listed by the source): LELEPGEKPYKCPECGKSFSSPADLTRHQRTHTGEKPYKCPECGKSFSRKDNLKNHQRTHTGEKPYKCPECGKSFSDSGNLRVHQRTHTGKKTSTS
- Assay: SPR; HBS-EP, 1:1 Langmuir
- Test conditions: tags: MBP fusion (pMAL); label: 5'-biotin sense strand (SPR)
Endpoint label: Kd (µM)
Answers are plain numbers, in µM.

Given item ZFPf target oligo (dsDNA) DNA 1: AGTACTAACAAGACAAGTACT DNA 2: AGTACTTGTCTTGTTAGTACT , the value recorded as its Kd is 185
